B1: mRNA-splicing (parent)
chain: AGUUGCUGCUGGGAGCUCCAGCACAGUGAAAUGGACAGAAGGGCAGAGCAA

- Variants of: B1
- assay info: exon inclusion enrichment index; higher = more inclusion; WT1 exon 5 minigene, HEK293
Could you label it y if measured exon inclusion enrichment index is 0.1 or higher, and n otherwise?

Query: Exam item: decide whether the reported exon inclusion enrichment index for G5C C6G U7C U10C G26C is at least 0.1.
Result: y

Query: Exam item: decide whether the reported exon inclusion enrichment index for U4A G5U C6G U7G C9A is at least 0.1.
Result: n

Query: Exam item: decide whether the reported exon inclusion enrichment index for C24G A25C is at least 0.1.
Result: n

Query: Exam item: decide whether the reported exon inclusion enrichment index for G2C U3G G5C C6U G8C C9U U10C is at least 0.1.
Result: y

Query: Exam item: decide whether the reported exon inclusion enrichment index for C6A U7A C9A U10A C44G is at least 0.1.
Result: y

Query: Exam item: decide whether the reported exon inclusion enrichment index for C6A U7A C9A U10A C44G A45U is at least 0.1.
Result: y

Query: Exam item: decide whether the reported exon inclusion enrichment index for `G41C` is at least 0.1.
Result: y

Query: Exam item: decide whether the reported exon inclusion enrichment index for C6A U7A C9A U10A G12U G13U is at least 0.1.
Result: y

Query: Exam item: decide whether the reported exon inclusion enrichment index for U4G G5C C6A U7C G8A U10A is at least 0.1.
Result: n

Query: Exam item: decide whether the reported exon inclusion enrichment index for G5C C6U U7C G8A U10A is at least 0.1.
Result: y

Query: Exam item: decide whether the reported exon inclusion enrichment index for C6A U7A C9A U10C G11A is at least 0.1.
Result: y

Query: Exam item: decide whether the reported exon inclusion enrichment index for G5A C6U G8A U10C is at least 0.1.
Result: y

Query: Exam item: decide whether the reported exon inclusion enrichment index for G5A C6G U7G C9A A45C G46U is at least 0.1.
Result: n

Query: Exam item: decide whether the reported exon inclusion enrichment index for G5C C6A U7C G8A U10A G28U A29G is at least 0.1.
Result: n

Query: Exam item: decide whether the reported exon inclusion enrichment index for U17G C18G is at least 0.1.
Result: n

Query: Exam item: decide whether the reported exon inclusion enrichment index for G5A C6U U7A G8U C9A U17A is at least 0.1.
Result: n

Query: Exam item: decide whether the reported exon inclusion enrichment index for G5U G8U C9U A29U is at least 0.1.
Result: n

Query: Exam item: decide whether the reported exon inclusion enrichment index for G12C G13C is at least 0.1.
Result: y

Query: Exam item: decide whether the reported exon inclusion enrichment index for C6A U7C C9A U10C A25U G26A is at least 0.1.
Result: y

Query: Exam item: decide whether the reported exon inclusion enrichment index for G5A U7C G8A U10C G28A A29C is at least 0.1.
Result: y

Query: Exam item: decide whether the reported exon inclusion enrichment index for G5C C6A U7C G8A U10A A23G C24G is at least 0.1.
Result: y

Query: Exam item: decide whether the reported exon inclusion enrichment index for G5A C6U U7A G8U C9A A23G C24A is at least 0.1.
Result: y
